Tested on: 362531-283-R-J2-PDC complex spheroid viability
Test: Anticancer human tumor 362531-283-R-J2-PDC patient-derived colon adenocarcinoma cell line growth inhibition [RAS]
Details: curve of first compound; second compound 0.000949 µM
pIC50: −log10 of the molar value.
readoutLabel: pIC50

[[record]]
molecule = "CC(C)n1nc(-c2ccc3oc(N)nc3c2)c2c(N)ncnc21 + CCn1c(-c2cccnc2C(C)OC)c2c3cc(ccc31)N1CCOC(CC(NC(=O)C(C(C)C)N(C)C(=O)C3(F)CCN(C(=O)C#CC(C)(C)N(C)C)CC3)C(=O)N3CCCC(N3)C(=O)OCC(C)(C)C2)C1"
readoutlabel = "pIC50"
assayresult = 7.15


1 = CCc1c2c(nc3ccc(O)cc13)-c1cc3c(c(=O)n1C2)COC(=O)[C@]3(O)CC + CCn1c(-c2cccnc2C(C)OC)c2c3cc(ccc31)N1CCOC(CC(NC(=O)C(C(C)C)N(C)C(=O)C3(F)CCN(C(=O)C#CC(C)(C)N(C)C)CC3)C(=O)N3CCCC(N3)C(=O)OCC(C)(C)C2)C1
2 = Nc1ccn(C2OC(CO)C(O)C2(F)F)c(=O)n1 (configuration not stated) + CCn1c(-c2cccnc2C(C)OC)c2c3cc(ccc31)N1CCOC(CC(NC(=O)C(C(C)C)N(C)C(=O)C3(F)CCN(C(=O)C#CC(C)(C)N(C)C)CC3)C(=O)N3CCCC(N3)C(=O)OCC(C)(C)C2)C1
Could you please tell me which of these two has the higher pIC50: 1 or 2 ? # answer = label of selected item
1

----------
Test system: 362531-283-R-J2-PDC complex spheroid viability
Test: Anticancer human tumor 362531-283-R-J2-PDC cell line growth inhibition [RAS];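 also: spheroids exposed to the agents for 7 days before readout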;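 as to viability, T/C: luminescence viability as percent of DMSO vehicle control wells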
Details: second compound 0.003 µM; first compound 1 µM; stronger effect = lower value
Excerpt: RAS pathway inhibitors in Combinations in Complex Spheroids A high-throughput screen of multi-cell type tumor spheroids was designed to identify active combinations of RAS pathway inhibitors and targeted small molecules. Complex spheroids include a stromal component modeled by human endothelial cells (HUVEC) and fibroblasts modeled by human mesenchymal stem cells (MSCs). […] Compounds. […] If the clinical Cmax for an agent had not been determined, the highest concentration tested was 10 microM. […]
readoutLabel: viability, T/C (%)
Give the value, in units of %, as a plain number.

Reported viability, T/C for C[C@@H](NC(=O)c1ncnc(N)c1Cl)c1ncc(C(=O)Nc2cc(C(F)(F)F)c(Cl)cn2)s1 + CCn1c(-c2cccnc2C(C)OC)c2c3cc(ccc31)N1CCOC(CC(NC(=O)C(C(C)C)N(C)C(=O)C3(F)CCN(C(=O)C#CC(C)(C)N(C)C)CC3)C(=O)N3CCCC(N3)C(=O)OCC(C)(C)C2)C1 : what is it?
92.5

One more molecule: C=CC(=O)Nc1cc(Nc2nccc(-c3cn(C)c4ccccc34)n2)c(OC)cc1N(C)CCN(C)C + CCn1c(-c2cc(N3CCN(C)CC3)cnc2C(C)OC)c2c3cc(ccc31)-c1csc(n1)CC(NC(=O)C1CC1C)C(=O)N1CCCC(N1)C(=O)OCC(C)(C)C2
63.1

One more molecule: CC(C)NCC(C(=O)N1CCN(c2ncnc3c2C(C)CC3O)CC1)c1ccc(Cl)cc1 (stereo not drawn) + CCn1c(-c2cccnc2C(C)OC)c2c3cc(ccc31)N1CCOC(CC(NC(=O)C(C(C)C)N(C)C(=O)C3(F)CCN(C(=O)C#CC(C)(C)N(C)C)CC3)C(=O)N3CCCC(N3)C(=O)OCC(C)(C)C2)C1
92.9

One more molecule: C[C@@H](NC(=O)c1ncnc(N)c1Cl)c1ncc(C(=O)Nc2cc(C(F)(F)F)c(Cl)cn2)s1 + CCn1c(-c2cc(N3CCN(C)CC3)cnc2C(C)OC)c2c3cc(ccc31)-c1csc(n1)CC(NC(=O)C1CC1C)C(=O)N1CCCC(N1)C(=O)OCC(C)(C)C2
94.3

One more molecule: C=CC(=O)Nc1cc(Nc2nccc(-c3cn(C)c4ccccc34)n2)c(OC)cc1N(C)CCN(C)C + CCn1c(-c2cccnc2C(C)OC)c2c3cc(ccc31)N1CCOC(CC(NC(=O)C(C(C)C)N(C)C(=O)C3(F)CCN(C(=O)C#CC(C)(C)N(C)C)CC3)C(=O)N3CCCC(N3)C(=O)OCC(C)(C)C2)C1
68.8

One more molecule: Cc1nc(N2CCC3(CC2)COC(C)C3N)c(CO)nc1Sc1ccnc(N)c1Cl (stereo not drawn) + CCn1c(-c2cc(N3CCN(C)CC3)cnc2C(C)OC)c2c3cc(ccc31)-c1csc(n1)CC(NC(=O)C1CC1C)C(=O)N1CCCC(N1)C(=O)OCC(C)(C)C2
89.6

One more molecule: CC1(O)CCCC1n1c(=O)c(C(F)F)cc2cnc(NC3CCN(S(C)(=O)=O)CC3)nc21 (stereo not drawn) + CCn1c(-c2cc(N3CCN(C)CC3)cnc2C(C)OC)c2c3cc(ccc31)-c1csc(n1)CC(NC(=O)C1CC1C)C(=O)N1CCCC(N1)C(=O)OCC(C)(C)C2
76.9

One more molecule: Cc1nc(N2CCC3(CC2)COC(C)C3N)c(CO)nc1Sc1ccnc(N)c1Cl (stereo not drawn) + CCn1c(-c2cccnc2C(C)OC)c2c3cc(ccc31)N1CCOC(CC(NC(=O)C(C(C)C)N(C)C(=O)C3(F)CCN(C(=O)C#CC(C)(C)N(C)C)CC3)C(=O)N3CCCC(N3)C(=O)OCC(C)(C)C2)C1
86.7
